Target: Cathepsin K (Oryctolagus cuniculus)
Sequence (P43236 whole entry): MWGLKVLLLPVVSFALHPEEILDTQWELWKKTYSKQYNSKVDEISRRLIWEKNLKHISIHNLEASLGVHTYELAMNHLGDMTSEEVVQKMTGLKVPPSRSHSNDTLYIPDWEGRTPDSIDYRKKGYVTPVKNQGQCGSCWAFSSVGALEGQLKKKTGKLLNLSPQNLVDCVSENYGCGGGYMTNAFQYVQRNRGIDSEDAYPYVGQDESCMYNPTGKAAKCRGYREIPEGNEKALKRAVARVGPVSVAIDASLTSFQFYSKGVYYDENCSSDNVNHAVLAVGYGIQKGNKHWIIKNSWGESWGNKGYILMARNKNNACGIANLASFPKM
experimental-endpoint: pKi
pKi here is simply -log10 of the concentration when that concentration is written in mol/L.

Q: # pKi lookup, item CN1CCN(c2nc(-c3ccc(C(=O)NC4(C(=O)NCC#N)CCCCC4)cc3)cs2)CC1
Result: 9.30

Data origin: ChEMBL document CHEMBL1141198
